- target-desc: Small ubiquitin-related modifier 1 (Homo sapiens)
- method-description: modulators of SUMO1 protein-protein interactions, primary screen, biochemical, uHTS (AID 602429)
- assay-setup: SUMO1 binding to a labelled peptide, TR-FRET, 1 h; at 20 µM; stronger effect = higher value
The whole screen tested about 360,000 compounds, of which about 1,200 (0.33%) were called active. What follows is part of a selection rich in actives, with near analogues and random picks from the rest.
measured-quantity: inhibition (%)
Value expressed in %; do not type the unit.

Tested system Small ubiquitin-related modifier 1 (Homo sapiens); inhibition recorded for O=C(Nc1ccccc1)c1ccccc1Br was 41.9

Summary: CC1CCCC(NC(=O)CSc2nccn2C)C1C (stereo not drawn) , Small ubiquitin-related modifier 1 (Homo sapiens), inhibition = -1.19

# lookup: Clc1ccc(-n2nnnc2-c2cnc(-c3ccccn3)nc2-c2cccs2)cc1 on Small ubiquitin-related modifier 1 (Homo sapiens), inhibition = -11.8

Entry CC1(C)OC(=O)N2CCc3ccccc3C21C (stereo not drawn) under Small ubiquitin-related modifier 1 (Homo sapiens) had inhibition of 3.74

The molecule O=C(O)c1ccccc1-c1ccccc1C(=O)Nc1ccccc1Br on Small ubiquitin-related modifier 1 (Homo sapiens): inhibition was -0.773

For C=C1c2c(Cl)ccc(O)c2C(O)=C2C(=O)[C@]3(O)C(O)=C(C(N)=O)C(=O)[C@@H](N(C)C)[C@@H]3[C@@H](O)C12 (stereo partly drawn) on Small ubiquitin-related modifier 1 (Homo sapiens), measured inhibition was 62.7

Query Nc1ccc2nc3c(=O)[nH]c(=S)[nH]c3nc2c1 on Small ubiquitin-related modifier 1 (Homo sapiens); inhibition returned: 92.6

The molecule COc1ccc(NC(=O)CN(C)C(=O)c2cc(C3CC3)nn2-c2ccccc2)cc1 , tested on Small ubiquitin-related modifier 1 (Homo sapiens), showed inhibition of -1.85

Let me check: O=C(Cn1cc2c(n1)CCCCC2)NCCN1CCOCC1 , system Small ubiquitin-related modifier 1 (Homo sapiens), measured inhibition is -0.24

Note to self: inhibition of Cc1onc(-c2ccccc2)c1C(=O)NNC(=S)NC(=O)c1ccc(F)cc1 with Small ubiquitin-related modifier 1 (Homo sapiens) was 61.3

// inhibition (Small ubiquitin-related modifier 1 (Homo sapiens)) for Cc1c(Cl)cccc1NC(=O)CCC(=O)N/N=C/c1ccco1 = -6.83

Assay Small ubiquitin-related modifier 1 (Homo sapiens), sample COCCNC(=O)Cn1cc2c(n1)CCCCC2 , inhibition read: 42.7

inhibition for Small ubiquitin-related modifier 1 (Homo sapiens) with input COc1cccc(CC(=O)N2CCCC(CCC(=O)N3CCN(c4ccccn4)CC3)C2)c1 (stereo not drawn) equals -2.38

Tested on Small ubiquitin-related modifier 1 (Homo sapiens): COc1cccc(NC(=O)C(Sc2nc3ccccc3c(=O)n2CC(C)C)c2ccccc2)c1 (stereo not drawn) . Observed inhibition: 1.55

The reported inhibition value, Small ubiquitin-related modifier 1 (Homo sapiens), for O=C(N/N=C/c1ccco1)c1ccc(C(=O)N/N=C/c2ccco2)o1 reads 36.6

With Small ubiquitin-related modifier 1 (Homo sapiens) as the test system, O=C(O)c1ccc(S(=O)(=O)c2ccccc2)s1 showed inhibition of 2.5

For the molecule Cc1cc2cc3n(c2nn1)N=C(Cl)CC3 , the measured inhibition on Small ubiquitin-related modifier 1 (Homo sapiens) was -9.97

Small ubiquitin-related modifier 1 (Homo sapiens) inhibition of O=C(CCC1CCCN(C(=O)c2ccc(F)c(F)c2)C1)N1CCN(c2ccccn2)CC1 (stereo not drawn) is 2.38

The molecule COc1ccccc1CNC(=O)Cn1cc2c(n1)CCCC2 , when measured on Small ubiquitin-related modifier 1 (Homo sapiens), yielded inhibition of -1.54

Lab note: molecule Cc1ccc(NC(=O)Cn2sc3ccccc3c2=O)cc1 tested on Small ubiquitin-related modifier 1 (Homo sapiens); recorded inhibition was 5.66

Form field, inhibition with Small ubiquitin-related modifier 1 (Homo sapiens), item CC(=O)NN=C(C)c1ccc(NC(=O)C2CC2)cc1 : -0.643

For O=C(Nc1ccccc1)c1ccccc1NC(=O)C(F)(F)F on Small ubiquitin-related modifier 1 (Homo sapiens), measured inhibition was -1.22

// assay Small ubiquitin-related modifier 1 (Homo sapiens), entry S=c1[nH]nc(-c2cccs2)n1/N=C/c1cn(-c2ccccc2)nc1-c1ccc(Cl)cc1 , inhibition value = 41.9

Just for reference, PubChem BioAssay AID602429 is where these values come from.
